# Test system: HCT-116
# experimentSummary: NCI tumour cell line growth inhibition, 48 h
Calls of active or inactive are those of the source. No stated cut-off is given here; in the data, active = GI50 up to about 1.1 µM and inactive = higher.
quantityKind: GI50

> print(dat)
                                   compound               result
1  CN(C)NC1=NS(=O)(=O)c2cc3c(=O)n(C)[nH]c3cc2S1   > 10 µM (inactive)
2                    O=c1c2ccccc2sc2ccccc12  > 100 µM (inactive)
3  CCCCCCCCCCCCCCC(C(=O)[O-])[n+]1ccccc1 (stereo unspecified)  > 100 µM (inactive)
4  CCOC(=O)c1c2c(n(C)c1-c1ccccc1)C(=O)C(C)=CC2=O    3.6 µM (inactive)
5  COc1cc2c(c(O)c1OC)C(=O)C(Cc1ccc(O)cc1)CO2 (stereo unspecified)   25.3 µM (inactive)
6                  Nc1ncnc2oc(-c3cccs3)nc12  > 100 µM (inactive)

###

# Test system: UACC-257
# experimentSummary: NCI tumour cell line growth inhibition, 48 h
Activity calls are given as the source filed them. No stated cut-off is given here; in the data, active = GI50 up to about 1.1 µM and inactive = higher.
Labels: class 1 for active, class 0 for inactive

> print(dat)
                                    compound      cat
 1  CCOC(=O)C1C(O)CC2c3ccccc3-c3ccccc3C21 (stereo not drawn)  class 0
 2  CC1=N[C@@](C)(C2CC3C=CC2C3=O)COC1=O (stereo partly drawn)  class 0
 3  COC(=O)C1CC2c3c(c4ccccc4n3C)CC(C1=O)N2C (stereo not drawn)  class 0
 4  COc1cccc2c1C(=O)c1c(O)c3c(c(O)c1C2=O)C[C@@](O)(C(=O)CO)C[C@@H]3OC1CC(N2CCOCC2C#N)C(O)C(C)O1 (stereo partly drawn)  class 1
 5       C/C(=N\NC(=S)N(C)C)c1nc2cccnc2[nH]1  class 0
 6  Cc1cc(S(=O)(=O)[N-]/C(=N/S(=O)(=O)c2ccc(Cl)cc2)[n+]2ccc(N(C)C)cc2)c(SCC(=O)O)cc1Cl  class 0
 7     CC(C)(C)c1cc2ccc(C(N)=O)cc2c(=O)[nH]1  class 0
 8  COc1ccc(C(O)c2nccn2C)c(OC)c1 (stereo not drawn)  class 0
 9  CN(Cc1cc(C(C)(C)C)cc(Br)c1O)Cc1cc(C(C)(C)C)cc(Br)c1O  class 0
10  Cc1ccc(S(=O)(=O)N2CCCSCCSCCCN(S(=O)(=O)c3ccc(C)cc3)CC2)cc1  class 0
11  CC1=NC2(C(=O)O)C3(C(=O)O)N=C(C)OC3(C(F)(F)F)C2(C(F)(F)F)O1 (stereo not drawn)  class 0
12      CC(=O)c1cccc(Nc2c3ccccc3nc3occc23)c1  class 0
13  c1cc2ccc1C1NCCCN1CCN1CCCNC1c1ccc(cc1)C1NCCCN1CCN1CCCNC21 (stereo not drawn)  class 0
14           CCOC(=O)c1cc(=O)c2cccc3c2n1CCS3  class 0
15  CCCCCCCCCCCCCCC(C(=O)[O-])[n+]1ccccc1 (stereo not drawn)  class 0
16                  O=C(/C=C/c1ccsc1)c1ccco1  class 0
17  CCOC(=O)NC(=O)c1cn(C2CCCCC2)c(=O)n(C)c1=O  class 0
18           COc1ccc(OC)c(/C(C)=N/NC(N)=S)c1  class 0
19  COC(=O)C1=C(c2cc(OC)c(OC)c(OC)c2)OC(c2cc(OC)c(OC)c(OC)c2)C1COC(C)=O (stereo not drawn)  class 0
20  Nc1ccc(S2(c3ccc(N)cc3)C=C(c3ccccc3)C(c3ccccc3)=C2)cc1  class 0
21  COc1ccc(-c2c(-c3ccc(OC)cc3)n3c(=O)n(C)c(=O)n23)cc1  class 0
22             Cc1cc(C)cc(Nc2cc(O)nc(O)n2)c1  class 0
23      CCN(CC)CCCNc1nnc(C)c2[nH]c3ccccc3c12  class 0
24  Clc1ccc(C2=NN(c3ccccc3)C3c4cc(Br)ccc4OCC23)cc1 (stereo not drawn)  class 0
25  Cc1ccc(S(=O)(=O)Nn2c(O)c(C#N)c(-c3ccc([N+](=O)[O-])cc3)c(C#N)c2=O)cc1  class 0
26  CC(C)OP(=O)(OC(C)C)C(C(C)C)N(C)/C(N)=N\C1=NC(C(F)(F)F)(C(F)(F)F)N=C(C(C(F)(F)F)C(F)(F)F)O1 (stereo not drawn)  class 0
27  CC1=NN(C(=O)Cc2ccccc2)C(=O)/C1=C\c1ccc(O)cc1  class 0
28           CSc1ncc2c(C#N)c3ccccn3c(=O)c2n1  class 0
29        Cc1c([N+](=O)[O-])oc2ccc3ccccc3c12  class 0
30               Cc1oc2nc(N(C)C)n3cnnc3c2c1C  class 0
31  N#Cc1c(-c2ccc(Cl)cc2)c2c(n(C3OC(CO)C(O)C(O)C3O)c1=S)CCC2 (stereo not drawn)  class 0
32  Cc1nnc2n1N=C(c1cc(F)c(Cl)cc1Cl)/C(=C/c1ccc3c(c1)OCO3)S2  class 0
33   COc1cc(/C=C/c2sc3ccccc3[n+]2C)ccc1N(C)C  class 0
34  CCN1C(=O)C(=C/C=C/C=C2/N(C)c3ccccc3C2(C)C)C(=O)N(CC)C1=S  class 0
35   Clc1ccccc1/C=C/c1nsc(/C=C/c2ccccc2Cl)n1  class 0
36         Cc1cnc2[nH]c(-c3ccccc3)cc(=O)c2c1  class 1
37  COc1ccc(S(=O)(=O)NC(C)C(=O)O)cc1 (stereo not drawn)  class 0
38  C=CCOC(=O)N1[C@H]2C#C/C=C\C#C[C@]3(O)C(=O)C[C@H](C)[C@]24O[C@]43C2=CC(=O)C=CC21OC (stereo partly drawn)  class 0
39  CCOC(=O)c1c2c(n(C)c1-c1ccccc1)C(=O)C(C)=CC2=O  class 0
40                   COc1cc2c3c(c1)CCCN3CCC2  class 0
41  COC(CC1(CCNc2ccccc2)C(=O)N(COCC[Si](C)(C)C)c2ccccc21)OC (stereo not drawn)  class 0
42  OCC1OC(n2cnc3c2NC=NC[C@H]3O)CC1O (stereo partly drawn)  class 0
43  COC(=O)C1C(O)CC(c2ccccn2)N(Cc2ccccc2)C1c1ccccn1 (stereo not drawn)  class 0
